Hi there, I'd appreciate the recorded relative viability for every entry that follows.
Test system: LXF-289
TEST_PROTOCOL: relative viability (nuclei count vs DMSO), 5 days (fraction); higher = more cells survive
RECORDED_CONDITIONS: first compound 0.002 µM
Answers are plain numbers.

Some molecules with known relative viability results, for comparison:
INSERT INTO assay_data (molecule, recorded_number) VALUES
  ('CCNC(=O)c1noc(-c2cc(C(C)C)c(O)cc2O)c1-c1ccc(CN2CCOCC2)cc1 [Luminespib] + Cc1cc(Nc2cc(N3CCN(C)CC3)nc(Sc3ccc(NC(=O)C4CC4)cc3)n2)n[nH]1 [Tozasertib] (partner 0.1 µM)', 0.225),
  ('CCNC(=O)c1noc(-c2cc(C(C)C)c(O)cc2O)c1-c1ccc(CN2CCOCC2)cc1 [Luminespib] + N=C(N)NC(=N)NCCc1ccccc1 [Phenformin] (partner 250 µM)', 0.429),
  ('CCNC(=O)c1noc(-c2cc(C(C)C)c(O)cc2O)c1-c1ccc(CN2CCOCC2)cc1 [Luminespib] + Cc1nc(Nc2ncc(C(=O)Nc3c(C)cccc3Cl)s2)cc(N2CCN(CCO)CC2)n1 [Dasatinib] (partner 0.075 µM)', 0.271),
  ('CCNC(=O)c1noc(-c2cc(C(C)C)c(O)cc2O)c1-c1ccc(CN2CCOCC2)cc1 [Luminespib] + CC(C)C[C@H](NC(=O)[C@H](Cc1ccccc1)NC(=O)c1cnccn1)B(O)O [Bortezomib] (partner 0.002 µM)', 0.969),
  ('CCNC(=O)c1noc(-c2cc(C(C)C)c(O)cc2O)c1-c1ccc(CN2CCOCC2)cc1 [Luminespib] + CC(=O)Nc1cccc(-n2c(=O)n(C3CC3)c(=O)c3c(Nc4ccc(I)cc4F)n(C)c(=O)c(C)c32)c1 [Trametinib] (partner 0.02 µM)', 0.691);

Batch request: relative viability for each of the following molecules.
1. CCNC(=O)c1noc(-c2cc(C(C)C)c(O)cc2O)c1-c1ccc(CN2CCOCC2)cc1 [Luminespib] + CC(=O)c1c(C)c2cnc(Nc3ccc(N4CCNCC4)cn3)nc2n(C2CCCC2)c1=O [Palbociclib] (partner 0.5 µM)
2. CCNC(=O)c1noc(-c2cc(C(C)C)c(O)cc2O)c1-c1ccc(CN2CCOCC2)cc1 [Luminespib] + CS(=O)(=O)CCNCc1ccc(-c2ccc3ncnc(Nc4ccc(OCc5cccc(F)c5)c(Cl)c4)c3c2)o1 [Lapatinib] (partner 2 µM)

A:
[0.582, 0.905]

###

Test system: LCLC-97TM1
TEST_PROTOCOL: relative viability (nuclei count vs DMSO), 5 days (fraction); higher = more cells survive
RECORDED_CONDITIONS: first compound 8 µM
Please respond with reported relative viability for every item in the list.
Numbers only.

Observe how each entry below is paired with its result.
INSERT INTO results (compound, measured_quantity, recorded_number) VALUES
  ('Nc1cccc2c1CN(C1CCC(=O)NC1=O)C2=O (stereo not drawn) [Lenalidomide] + CC(=O)Nc1cccc(-n2c(=O)n(C3CC3)c(=O)c3c(Nc4ccc(I)cc4F)n(C)c(=O)c(C)c32)c1 [Trametinib] (partner 0.02 µM)', 'relative viability', 0.159),
  ('Nc1cccc2c1CN(C1CCC(=O)NC1=O)C2=O (stereo not drawn) [Lenalidomide] + NC(=O)Nc1cc(-c2cccc(F)c2)sc1C(=O)N[C@H]1CCCNC1 [AZD7762] (partner 0.2 µM)', 'relative viability', 0.222);

We now examine a further compound.
Q: Recorded relative viability for Nc1cccc2c1CN(C1CCC(=O)NC1=O)C2=O (stereo not drawn) [Lenalidomide] + N=C(N)NC(=N)NCCc1ccccc1 [Phenformin] (partner 250 µM) , please?
A: 0.365

###

Tested on: NCI-H3122
TEST_PROTOCOL: relative viability (nuclei count vs DMSO), 5 days (fraction); higher = more cells survive
RECORDED_CONDITIONS: first compound 0.02 µM
Kindly state relative viability for each of the entries shown.

Below is a list of compounds. For each, state its recorded relative viability.
1. CN1CCN(CCOc2cc(OC3CCOCC3)c3c(Nc4c(Cl)ccc5c4OCO5)ncnc3c2)CC1 [Saracatinib] + Cc1nc(Nc2ncc(C(=O)Nc3c(C)cccc3Cl)s2)cc(N2CCN(CCO)CC2)n1 [Dasatinib] (partner 0.075 µM)
2. CCNC(=O)c1noc(-c2cc(C(C)C)c(O)cc2O)c1-c1ccc(CN2CCOCC2)cc1 [Luminespib] + CC(C)C[C@H](NC(=O)[C@H](Cc1ccccc1)NC(=O)c1cnccn1)B(O)O [Bortezomib] (partner 0.002 µM)

A:
1: 0.879; 2: 1.05

###

Tested on: HCC-15
TEST_PROTOCOL: relative viability (nuclei count vs DMSO), 5 days (fraction); higher = more cells survive
RECORDED_CONDITIONS: first compound 0.02 µM
MEASURED_QUANTITY: relative viability
Answers are plain numbers.

INSERT INTO assay_data (molecule, recorded_number) VALUES
  ('CN1CCN(CCOc2cc(OC3CCOCC3)c3c(Nc4c(Cl)ccc5c4OCO5)ncnc3c2)CC1 [Saracatinib] + CC(C)C[C@H](NC(=O)[C@H](Cc1ccccc1)NC(=O)c1cnccn1)B(O)O [Bortezomib] (partner 0.002 µM)', 0.969),
  ('CCNC(=O)c1noc(-c2cc(C(C)C)c(O)cc2O)c1-c1ccc(CN2CCOCC2)cc1 [Luminespib] + COc1cc2c(Oc3ccc(NC(=O)C4(C(=O)Nc5ccc(F)cc5)CC4)cc3F)ccnc2cc1OCCCN1CCOCC1 [Foretinib] (partner 0.25 µM)', 1.07),
  ('CN1CCN(CCOc2cc(OC3CCOCC3)c3c(Nc4c(Cl)ccc5c4OCO5)ncnc3c2)CC1 [Saracatinib] + C[C@@H](Oc1cc(-c2cnn(C3CCNCC3)c2)cnc1N)c1c(Cl)ccc(F)c1Cl [Crizotinib] (partner 1 µM)', 0.817),
  ('CN1CCN(CCOc2cc(OC3CCOCC3)c3c(Nc4c(Cl)ccc5c4OCO5)ncnc3c2)CC1 [Saracatinib] + NC(=O)Nc1cc(-c2cccc(F)c2)sc1C(=O)N[C@H]1CCCNC1 [AZD7762] (partner 0.2 µM)', 1.29),
  ('CCNC(=O)c1noc(-c2cc(C(C)C)c(O)cc2O)c1-c1ccc(CN2CCOCC2)cc1 [Luminespib] + CS(=O)(=O)N1CCN(Cc2cc3nc(-c4cccc5[nH]ncc45)nc(N4CCOCC4)c3s2)CC1 [Pictilisib] (partner 1 µM)', 0.623),
  ('CN1CCN(CCOc2cc(OC3CCOCC3)c3c(Nc4c(Cl)ccc5c4OCO5)ncnc3c2)CC1 [Saracatinib] + CS(=O)(=O)CCNCc1ccc(-c2ccc3ncnc(Nc4ccc(OCc5cccc(F)c5)c(Cl)c4)c3c2)o1 [Lapatinib] (partner 2 µM)', 0.859),
  ('CN1CCN(CCOc2cc(OC3CCOCC3)c3c(Nc4c(Cl)ccc5c4OCO5)ncnc3c2)CC1 [Saracatinib] + CS(=O)(=O)N1CCN(Cc2cc3nc(-c4cccc5[nH]ncc45)nc(N4CCOCC4)c3s2)CC1 [Pictilisib] (partner 1 µM)', 0.797);

Let us examine a further case.
Q: # query: relative viability of entry CCNC(=O)c1noc(-c2cc(C(C)C)c(O)cc2O)c1-c1ccc(CN2CCOCC2)cc1 [Luminespib] + Nc1nc2[nH]cc(CCc3ccc(C(=O)N[C@@H](CCC(=O)O)C(=O)O)cc3)c2c(=O)[nH]1 [Pemetrexed] (partner 0.2 µM)
A: 0.214

###

So I've got a bunch of compounds here, and I need their relative viability values.
Test system: NCI-H23
TEST_PROTOCOL: relative viability (nuclei count vs DMSO), 5 days (fraction); higher = more cells survive
RECORDED_CONDITIONS: first compound 0.001 µM
Answers are plain numbers.

INSERT INTO measurements (compound, recorded_number) VALUES
  ('Cc1cn(-c2cc(NC(=O)c3ccc(C)c(Nc4nccc(-c5cccnc5)n4)c3)cc(C(F)(F)F)c2)cn1 [Nilotinib] + C[C@@H](Oc1cc(-c2cnn(C3CCNCC3)c2)cnc1N)c1c(Cl)ccc(F)c1Cl [Crizotinib] (partner 1 µM)', 0.471);

Batch: relative viability for all items listed.
1. Cc1cn(-c2cc(NC(=O)c3ccc(C)c(Nc4nccc(-c5cccnc5)n4)c3)cc(C(F)(F)F)c2)cn1 [Nilotinib] + CS(=O)(=O)CCNCc1ccc(-c2ccc3ncnc(Nc4ccc(OCc5cccc(F)c5)c(Cl)c4)c3c2)o1 [Lapatinib] (partner 2 µM)
2. Cc1cn(-c2cc(NC(=O)c3ccc(C)c(Nc4nccc(-c5cccnc5)n4)c3)cc(C(F)(F)F)c2)cn1 [Nilotinib] + Cc1nc(NC(=O)N2CCC[C@H]2C(N)=O)sc1-c1ccnc(C(C)(C)C(F)(F)F)c1 [Alpelisib] (partner 2 µM)
3. Cc1cn(-c2cc(NC(=O)c3ccc(C)c(Nc4nccc(-c5cccnc5)n4)c3)cc(C(F)(F)F)c2)cn1 [Nilotinib] + N=C(N)NC(=N)NCCc1ccccc1 [Phenformin] (partner 250 µM)
4. Cc1cn(-c2cc(NC(=O)c3ccc(C)c(Nc4nccc(-c5cccnc5)n4)c3)cc(C(F)(F)F)c2)cn1 [Nilotinib] + COc1cc2c(Oc3ccc(NC(=O)C4(C(=O)Nc5ccc(F)cc5)CC4)cc3F)ccnc2cc1OCCCN1CCOCC1 [Foretinib] (partner 0.25 µM)

A:
1.01
0.654
0.706
1.06
